conditions: 298.15 K; 101 kPa; Liquid; Sing-around technique in a fixed-path interferometer
Form field: speed of sound (one value per entry).
test readout: speed of sound (m/s)

- CC(=O)c1ccccc1: 1296.2
- CC(=O)N(C)C [N,N-dimethylethanamide]: 1458.2
- COCCO: 1339.3
- CCCCCCCCO: 1349.2

* * *

Listing: mass density of selected compounds
conditions: 308.15 K; 101 kPa; Liquid
test readout: mass density (kg/m3)

- CCCCCCCCO: 814
- COCCO: 952.1
- CC(=O)c1ccccc1: 1014.9
- CC(=O)N(C)C [N,N-dimethylethanamide]: 925.8

Reference source: the NIST ThermoML archive (doi:10.1021/je100170v)
